What inhibition was measured for each of the following?
Target: Hypoxia-inducible factor 1-alpha (Homo sapiens) (UniProt Q16665)
Sequence (Q16665 whole entry, looked up): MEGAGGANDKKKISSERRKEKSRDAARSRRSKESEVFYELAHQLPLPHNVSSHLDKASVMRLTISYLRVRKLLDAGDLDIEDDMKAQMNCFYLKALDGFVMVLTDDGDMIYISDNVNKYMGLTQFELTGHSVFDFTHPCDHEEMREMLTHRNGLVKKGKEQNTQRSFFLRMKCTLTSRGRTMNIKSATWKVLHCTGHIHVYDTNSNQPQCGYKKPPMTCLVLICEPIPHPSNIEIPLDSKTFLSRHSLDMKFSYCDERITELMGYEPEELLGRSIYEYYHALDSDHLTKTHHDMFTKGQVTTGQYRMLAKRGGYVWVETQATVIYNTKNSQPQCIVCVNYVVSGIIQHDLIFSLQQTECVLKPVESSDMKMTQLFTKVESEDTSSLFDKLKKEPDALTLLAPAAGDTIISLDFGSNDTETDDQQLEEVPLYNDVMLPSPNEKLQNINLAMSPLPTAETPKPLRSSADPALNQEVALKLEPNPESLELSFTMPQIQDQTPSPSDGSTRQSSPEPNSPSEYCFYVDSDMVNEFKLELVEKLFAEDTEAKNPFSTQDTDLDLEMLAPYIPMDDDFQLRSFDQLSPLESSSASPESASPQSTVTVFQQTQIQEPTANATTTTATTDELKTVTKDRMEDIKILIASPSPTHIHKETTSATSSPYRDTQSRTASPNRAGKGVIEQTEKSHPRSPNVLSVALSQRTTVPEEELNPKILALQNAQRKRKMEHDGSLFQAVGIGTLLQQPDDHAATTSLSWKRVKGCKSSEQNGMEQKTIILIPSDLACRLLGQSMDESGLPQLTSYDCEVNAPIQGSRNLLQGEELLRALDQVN
Assay: HIF-1a and HIF-2a reporter inhibitors, SAR follow-up, cell-based, luminescence, MIAPaCa-2, 786-0, panel (AID 652011)
Conditions: MIAPaCa-2/PANC HIF reporter, luciferase luminescence, desferoxamine, overnight, HIF1a, run 1; at 99 µM (top of the series)
Please state the value followed by its unit.

Examples with answers:
| COMPOUND | ASSAY_RESULT |
| --- | --- |
| O=C(O)CCc1nc(-c2ccccc2)no1 | 4.64% |
| CCNC(=O)CCc1nc(-c2ccccc2C)no1 | -25.2% |

Would you mind giving inhibition for every compound in the list below?
1. CCCCc1ccc(-c2noc(CCC(=O)NC)n2)cc1
2. CCC(C)NC(=O)CCc1nc(-c2ccc(C(C)(C)C)cc2)no1 (configuration not stated)
3. CC(C)(C)c1ccc(-c2noc(CCC(=O)Nc3cccnc3)n2)cc1
4. O=C(CCc1nc(-c2ccccc2)no1)NC1CC1
5. CNC(=O)CCc1nc(-c2ccc(Cl)cc2)no1
6. CCNC(=O)CCc1nc(-c2ccccc2Cl)no1

1: -40.2%; 2: -78.9%; 3: 98.9%; 4: -33.5%; 5: -25.6%; 6: -17.5%

I'm hoping you can list inhibition for every compound here, please.
1. CNC(=O)CCc1nc(-c2ccc(C(C)(C)C)cc2)no1
2. CC(C)(C)c1ccc(-c2noc(CCC(=O)NC3CCCCC3)n2)cc1
3. CCNC(=O)CCc1nc(-c2ccc(OCC)cc2)no1
4. CC(C)c1ccc(-c2noc(CCC(=O)NC3CC3)n2)cc1

1. 21.1%
2. 41.6%
3. -79.8%
4. -58.4%

* * *

Give measured inhibition for each item. Keep answers brief.
Target: Hypoxia-inducible factor 1-alpha (Homo sapiens) (UniProt Q16665)
Test: HIF-1a and HIF-2a reporter inhibitors, SAR follow-up, cell-based, luminescence, MIAPaCa-2, 786-0, panel (AID 652011)
Conditions: MIAPaCa-2/PANC HIF reporter, luciferase luminescence, desferoxamine, overnight, HIF1a, run 1; at 99 µM (top of the series)
Numbers only, in %.

Completed entries (count: 5):
| STRUCTURE_STRING | TARGET | ASSAY_RESULT |
| --- | --- | --- |
| CC(C)(C)c1ccc(-c2noc(CCC(=O)NC3CC3)n2)cc1 | Hypoxia-inducible factor 1-alpha (Homo sapiens) (UniProt Q16665) | -50.8 |
| CCNC(=O)CCc1nc(-c2cccc(F)c2)no1 | Hypoxia-inducible factor 1-alpha (Homo sapiens) (UniProt Q16665) | -22 |
| CCNC(=O)CCc1nc(-c2ccccc2)no1 | Hypoxia-inducible factor 1-alpha (Homo sapiens) (UniProt Q16665) | -39.4 |
| CNC(=O)CCc1nc(-c2ccc(C)cc2)no1 | Hypoxia-inducible factor 1-alpha (Homo sapiens) (UniProt Q16665) | 8.42 |
| CC(C)(C)c1ccc(-c2noc(CCC(=O)Nc3cccc([N+](=O)[O-])c3)n2)cc1 | Hypoxia-inducible factor 1-alpha (Homo sapiens) (UniProt Q16665) | 96.4 |

Memo: CCNC(=O)CCc1nc(-c2ccc(C(C)C)cc2)no1 , reported inhibition: -33

* * *

Biological target: Hypoxia-inducible factor 1-alpha (Homo sapiens) (UniProt Q16665)
Experiment: HIF-1a and HIF-2a reporter inhibitors, SAR follow-up, cell-based, luminescence, MIAPaCa-2, 786-0, panel (AID 652011)
Details: MIAPaCa-2/PANC HIF reporter, luciferase luminescence, desferoxamine, overnight, HIF1a, run 1; at 99 µM (top of the series)
PROPERTY: inhibition (%)
Numbers only, in %.

| MOLECULE | ASSAY_RESULT |
| --- | --- |
| CCC(C)NC(=O)CCc1nc(-c2ccc(C(C)C)cc2)no1 (stereo unspecified) | -41.9 |
| CNC(=O)CCc1nc(-c2ccc(OC)cc2)no1 | -51.1 |
| CNC(=O)CCc1nc(-c2ccc(F)cc2)no1 | -42.8 |

Hey, can you go through the list below and give me inhibition for every item?
1. CC(C)NC(=O)CCc1nc(-c2ccc(C(C)(C)C)cc2)no1
2. CCOc1ccccc1NC(=O)CCc1nc(-c2ccc(C(C)(C)C)cc2)no1
3. CCOc1ccc(-c2noc(CCC(=O)NC)n2)cc1

[17.3, 54.8, -41.9]
